- System: Mus musculus
- assay_text: In vivo antitumor activity of compound against subaxillary implanted 6C3HED lymphosarcoma implanted in C3H mice at a dose of 75 mg/kg administered perorally twice daily for a period of 8 days.
- Assay type: functional
- condition_details: 192 h, route oral
Each item that follows carries a reported inhibition in vivo at 75 mg/kg.

Cc1ccc([S+]([O-])(=NC(=O)Nc2ccc(Cl)cc2)NC(C)C)cc1 (centres undefined)	86%
Cc1ccc([S+]([O-])(=NC(=O)Nc2ccc(Cl)cc2)NCC(C)C)cc1 (centres undefined)	85%
N[S+]([O-])(=NC(=O)Nc1ccc(Cl)cc1)c1ccc(CO)cc1 (centres undefined)	99%

Consider the additional compound presented here.
Requested read-out: inhibition in vivo at 75 mg/kg. Entry: Cc1ccc([S+](N)([O-])=NC(=O)Nc2ccc(Cl)cc2)cc1 (single isomer, unassigned; (-)) 100%
